compounds and their reported composite z-score
- procedure-text: COS7 lysate on small-molecule microarray, probe aHis, 635 nm (AID 1123);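 further: z-score combines 667nm fluorescence intensity with signal-to-noise per printed compound spot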
- particulars: COS7 cell lysate, fluorescence, higher = more signal
Lab note: jot down the number only; don't add units.

Examples with answers:
compound=O=C1N(Cc2ccccc2)c2ccccc2[C@@H]2OC(c3ccc(OCCCO)cc3)=N[C@]12Cc1ccccc1 obs_value=2.23
compound="COc1cc2c(cc1O)C(C)N(Cc1ccc([N+](=O)[O-])o1)CC2 (centres undefined)" obs_value=0.68
compound=[N-]=[N+]=NCc1ccccc1[C@H]1OC(c2ccc(OCCCO)cc2)=N[C@@]1(CCS(=O)(=O)c1ccccc1)C(=O)N1CCCCC1 obs_value=2.83
compound="O=C1OCC=C[C@H]2OC34C=CCN(Cc5ccccc5)C(=O)[C@H]3N(CCCCCCO)C(=O)[C@@H]4[C@@H]12 (some centres undefined)" obs_value=0.0976
compound=C=CCOC(=O)[C@H]1[C@@H]2C(=O)O[C@@H](c3ccccc3)[C@@H](c3ccccc3)N2[C@@H](c2ccc(OCCOC(=O)[C@@H]3C[C@@H]4C(=O)N[C@@H](CCCCN(C)C)C(=O)N4[C@@H]3c3ccc(O)cc3)cc2)[C@]12C(=O)Nc1ccccc12 obs_value=2.58

Input: Which value of composite z-score has been reported for C=CC[C@]1(C(=O)NCCN2CCOCC2)N=C(c2ccc(OCCCO)cc2)O[C@H]1c1ccccc1CN=[N+]=[N-] in the records?
Output: 1.41
